Numbers sourced from patent US20160135455A1.

# System: sorghum (SORVU, Sorghum bicolor)
# experimental.details: Postemergence greenhouse trial, herbicidal efficacy on sorghum
# Assay type: in vivo
# measurement.conditions: applied alone at 35 g/ha, rated after 20-22 d
measured.endpoint: % visual injury, Obs, SORVU (%)
Form entry: value (%) — number only.

Some compounds with recorded % visual injury, Obs, SORVU:
# compound, reported.result
data = [
    ("CCOC(=O)c1nc(C(Cl)(Cl)Cl)n(-c2ccc(Cl)cc2Cl)n1 [fenchlorazole-ethyl, reference compound]", 0),
    ("COC(=O)c1nc(-c2ccc3ccn(C(=O)C(C)(C)C)c3c2F)c(F)c(N)c1Cl [compound 5]", 60),
    ("COC(=O)c1nc(-c2ccc3ccn(C(=O)C(C)C)c3c2F)c(F)c(N)c1Cl [compound 4]", 80),
    ("COCC(=O)n1ccc2ccc(-c3nc(C(=O)OC)c(Cl)c(N)c3F)c(F)c21 [compound 6]", 70),
]

Consider the additional compound presented here.
Provide measured % visual injury, Obs, SORVU value, entry: CCOC(=O)C1=NN(c2ccc(Cl)cc2Cl)C(C)(C(=O)OCC)C1 (centres unmarked) [mefenpyr-diethyl, reference compound] 0

---

# Test system: wheat (TRZAS), Triticum aestivum (spring wheat)
# experimental.details: Postemergence greenhouse trial, crop injury (phytotoxicity/safening) on wheat
# Type: in vivo
# measurement.conditions: applied alone at 35 g/ha, scored 20-22 d, 0 = no injury, 100 = complete kill
measured.endpoint: Obs, % visual injury, TRZAS (%)
Form entry: value (%) — number only.

# molecule, Obs, % visual injury, TRZAS [%]
data = [
    ("COC(=O)c1nc(-c2ccc3ccn(C(=O)C(C)C)c3c2F)c(F)c(N)c1Cl", 40),
]

Provide measured Obs, % visual injury, TRZAS value, entry: CCOC(=O)C1=NOC(c2ccccc2)(c2ccccc2)C1 [isoxadifen-ethyl, reference compound] 0

Provide measured Obs, % visual injury, TRZAS value, entry: "COCC(=O)n1ccc2ccc(-c3nc(C(=O)OC)c(Cl)c(N)c3F)c(F)c21" 35

Provide measured Obs, % visual injury, TRZAS value, entry: "COC(=O)c1nc(-c2ccc3ccn(C(=O)C(C)(C)C)c3c2F)c(F)c(N)c1Cl" 45

Provide measured Obs, % visual injury, TRZAS value, entry: CCOC(=O)C1=NN(c2ccc(Cl)cc2Cl)C(C)(C(=O)OCC)C1 (centres unmarked) [mefenpyr-diethyl, reference compound] 0
